- System: K98450-129-R-PDC multicell spheroids, viability
- Procedure Details: Anticancer human tumor K98450-129-R-PDC patient-derived colon adenocarcinoma cell line growth inhibition [PI3K]
- Applied Conditions: second compound 0.0316 µM; first compound 0.316 µM; stronger effect = lower value
- Text: Combinatorial screen of targeted agents with the PI3K inhibitors inavolisib, alpelisib, duvelisib, and copanlisib in multi-cell type tumor spheroids A high-throughput screen of multi-cell type tumor spheroids was designed to identify active combinations of targeted small molecules and PI3K pathway inhibitors. […] Compounds. […] If the clinical Cmax for an agent had not been determined, the highest concentration tested was 10 microM. […]
Quantity Measured: viability, T/C

# return viability, T/C for each item in the list
1. C=CC(=O)N1CCN(c2nc(=O)n(-c3c(C)ccnc3C(C)C)c3nc(-c4c(O)cccc4F)c(F)cc23)C(C)C1 (stereo not drawn) + COc1c(OCCCN2CCOCC2)ccc2c3n(c(=NC(=O)c4cnc(N)nc4)nc12)CCN3
2. C=CC(=O)N1CCN(c2nc(=O)n(-c3c(C)ccnc3C(C)C)c3nc(-c4c(O)cccc4F)c(F)cc23)C(C)C1 (stereo not drawn) + Cc1nc(NC(=O)N2CCCC2C(N)=O)sc1-c1ccnc(C(C)(C)C(F)(F)F)c1
3. CC1(C)CCC(Nc2ncc(C(F)(F)F)c(-c3c[nH]c4c(P(C)(C)=O)c(C#N)ccc34)n2)CN1 (stereo not drawn) + CC(Nc1ncnc2nc[nH]c12)c1cc2cccc(Cl)c2c(=O)n1-c1ccccc1

Response:
73.8%
97.3%
67.9%

---

Field: viability, T/C. Provide a value for each of the molecules that follow.
- System: K98450-129-R-PDC multicell spheroids, viability
- Procedure Details: Anticancer human tumor K98450-129-R-PDC cell line growth inhibition [PI3K];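 further: spheroids exposed to agents for seven days before read-out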
- Applied Conditions: second compound 3.16 µM; first compound 3.16 µM; stronger effect = lower value
Give bare numbers, in %.

C=CC(=O)N1CCN(c2nc(=O)n(-c3c(C)ccnc3C(C)C)c3nc(-c4c(O)cccc4F)c(F)cc23)C(C)C1 (stereo unspecified) + CC(Nc1ncnc2nc[nH]c12)c1cc2cccc(Cl)c2c(=O)n1-c1ccccc1 ... 44.5
CC1(C)CCC(CN2CCN(c3ccc(C(=O)NS(=O)(=O)c4ccc(NCC5CCOCC5)c([N+](=O)[O-])c4)c(Oc4cnc5[nH]ccc5c4)c3)CC2)=C(c2ccc(Cl)cc2)C1 + Cc1nc(NC(=O)N2CCCC2C(N)=O)sc1-c1ccnc(C(C)(C)C(F)(F)F)c1 ... 83
CC(C)NCC(C(=O)N1CCN(c2ncnc3c2C(C)CC3O)CC1)c1ccc(Cl)cc1 (stereo unspecified) + CC(Nc1ncnc2nc[nH]c12)c1cc2cccc(Cl)c2c(=O)n1-c1ccccc1 ... 97.5
Cn1ncc(Cl)c1-c1cc(C(=O)NC(CN)Cc2cccc(F)c2)sc1Cl (stereo unspecified) + CC(Nc1ncnc2nc[nH]c12)c1cc2cccc(Cl)c2c(=O)n1-c1ccccc1 ... 97

Report viability, T/C for each item below.
1. CNC(=O)c1ccc(N2C(=S)N(c3ccc(C#N)c(C(F)(F)F)c3)C(=O)C2(C)C)cc1F + CC(Nc1ncnc2nc[nH]c12)c1cc2cccc(Cl)c2c(=O)n1-c1ccccc1
2. C#Cc1c(F)ccc2cc(O)cc(-c3ncc4c(N5CC6CCC(C5)N6)nc(OCC56CCCN5CC(F)C6)nc4c3F)c12 (stereo unspecified) + CC(Nc1ncnc2nc[nH]c12)c1cc2cccc(Cl)c2c(=O)n1-c1ccccc1
3. Cn1nccc1Nc1nccc(-c2ccn(C(CO)c3ccc(Cl)c(F)c3)c(=O)c2)n1 (stereo unspecified) + Cc1nc(NC(=O)N2CCCC2C(N)=O)sc1-c1ccnc(C(C)(C)C(F)(F)F)c1
4. CC(Cn1ccc(-c2ccc(C#N)c(Cl)c2)n1)NC(=O)c1cc(C(C)O)[nH]n1 (stereo unspecified) + Cc1nc(NC(=O)N2CCCC2C(N)=O)sc1-c1ccnc(C(C)(C)C(F)(F)F)c1
5. Cn1ncc(Cl)c1-c1cc(C(=O)NC(CN)Cc2cccc(F)c2)sc1Cl (stereo unspecified) + Cc1nc(NC(=O)N2CCCC2C(N)=O)sc1-c1ccnc(C(C)(C)C(F)(F)F)c1
6. Cn1nccc1Nc1nccc(-c2ccn(C(CO)c3ccc(Cl)c(F)c3)c(=O)c2)n1 (stereo unspecified) + CC(Nc1ncnc2nc[nH]c12)c1cc2cccc(Cl)c2c(=O)n1-c1ccccc1
7. CC1(C)CCC(Nc2ncc(C(F)(F)F)c(-c3c[nH]c4c(P(C)(C)=O)c(C#N)ccc34)n2)CN1 (stereo unspecified) + CC(Nc1ncnc2nc[nH]c12)c1cc2cccc(Cl)c2c(=O)n1-c1ccccc1

Response:
[87.6, 92, 85.4, 94, 86.2, 106, 65.1]
